test: Inhibition of Trypanosoma brucei brucei Inosine guanosine nucleoside hydrolase
Item-by-item account of Ki

>  <smiles.data>
Nc1ncnc2c(CN3C[C@H](O)[C@H](O)[C@H]3CO)c[nH]c12

>  <recorded.result>
32 µM

$$$$

Query: For the compound OC[C@@H]1[C@@H](O)[C@@H](O)CN1Cc1c[nH]c2c(O)ncnc12 , report Ki.
Result: 138 µM

Query: Please indicate Ki recorded for O=c1[nH]cnc2c(CN3C[C@H](O)[C@H](O)[C@H]3CO)csc12
Result: 120 µM

====

Overview of recorded pIC50 for various compounds
test system: Trypanosoma brucei brucei; assay: Antitrypanosomal activity against suramin sensitive Trypanosoma brucei brucei Lister 427 assessed as reduction in parasite growth after 3 days by fluorometrically; format: functional, organism-based; conditions: Lister 427, 72 h
pIC50: −log10 of the molar value.

These solved cases illustrate the format of a correct answer.
>  <compound>
Nc1ccc2cccc(CN3C[C@H](O)[C@H](O)[C@H]3CO)c2n1

>  <recorded.result>
< 4.19

$$$$
>  <compound>
OC[C@@H]1[C@@H](O)[C@@H](O)CN1Cc1csc2cncnc12

>  <recorded.result>
< 4.19

$$$$
>  <compound>
Nc1ncnc2c(C3N[C@H](CO)[C@@H](O)[C@H]3O)c[nH]c12 (stereo not given in full) [IMMUCILLIN A]

>  <recorded.result>
< 4.19

$$$$

Query: Provide pIC50, system Trypanosoma brucei brucei, entry OC[C@@H]1[C@@H](O)[C@@H](O)CN1Cc1ccnc2ccccc12
Result: < 4.19

Query: Look up and report measured pIC50 (Trypanosoma brucei brucei) for the following compound: Nc1ncccc1CN1C[C@H](O)[C@H](O)[C@H]1CO
Result: < 4.19

====

tested on: Plasmodium falciparum; assay: Antiparasitic activity against chloroquine-sensitive Plasmodium falciparum Ghana assessed as reduction in parasite growth after 3 days by fluorimetry; format: functional, organism-based
Calls of active or inactive are those of the source. No rule for the calls is given here.
endpoint.name: Activity

In the examples that follow, each entry is paired with its recorded Activity.
>  <smiles.data>
Cn1nnc2cc(CN3C[C@H](O)[C@H](O)[C@H]3CO)ccc21

>  <recorded.result>
inactive

$$$$
>  <smiles.data>
OC[C@@H]1[C@@H](O)[C@@H](O)CN1Cc1c[nH]c2c(O)ncnc12

>  <recorded.result>
inactive

$$$$
>  <smiles.data>
OC[C@@H]1[C@@H](O)[C@@H](O)CN1Cc1ccncc1

>  <recorded.result>
inactive

$$$$
>  <smiles.data>
OC[C@@H]1[C@@H](O)[C@@H](O)CN1Cc1ccccc1

>  <recorded.result>
inactive

$$$$
>  <smiles.data>
OC[C@@H]1[C@@H](O)[C@@H](O)CN1CCc1c[nH]c2ccccc12

>  <recorded.result>
inactive

$$$$
>  <smiles.data>
Cc1cc(N)c2cccc(CN3C[C@H](O)[C@H](O)[C@H]3CO)c2n1

>  <recorded.result>
inactive

$$$$

Query: Name the recorded Activity of the item OC[C@@H]1[C@@H](O)[C@@H](O)CN1Cc1ccc2ccccc2n1 in your answer.
Result: inactive

Query: Retrieve Activity measured for OC[C@@H]1[C@@H](O)[C@@H](O)CN1Cc1cnc2ccccc2c1 and print it.
Result: inactive

Query: Fill in reported Activity for this entry: COc1ccc(CN2C[C@H](O)[C@H](O)[C@H]2CO)cn1
Result: inactive

Query: Dear colleague, please send me the reported Activity for Cc1cc(Cl)c2cccc(CN3C[C@H](O)[C@H](O)[C@H]3CO)c2n1 when you can.
Result: inactive

Query: Look up Activity of Cc1nn(-c2ccccc2)nc1CN1C[C@H](O)[C@H](O)[C@H]1CO and report it.
Result: inactive

====

The entries below are paired with their reported IC50.
test system: Trypanosoma brucei brucei; test: Antitrypanosomal activity against suramin sensitive Trypanosoma brucei brucei Lister 427 assessed as reduction in parasite growth after 3 days by fluorometrically; assay type: functional, organism-based; conditions: Lister 427, 72 h

Worked cases, answers included:
>  <smiles.data>
OC[C@@H]1[C@@H](O)[C@@H](O)CN1Cc1cccc2cncnc12

>  <IC50>
> 64 µM

$$$$
>  <smiles.data>
O=[N+]([O-])c1ccc(CN2C[C@H](O)[C@H](O)[C@H]2CO)cc1

>  <IC50>
> 64 µM

$$$$
>  <smiles.data>
N=C(N)Nc1ccc(CN2C[C@H](O)[C@H](O)[C@H]2CO)cc1

>  <IC50>
> 64 µM

$$$$
>  <smiles.data>
OC[C@@H]1[C@@H](O)[C@@H](O)CN1Cc1ccc(-n2cccn2)cc1

>  <IC50>
> 64 µM

$$$$
>  <smiles.data>
OC[C@@H]1[C@@H](O)[C@@H](O)CN1Cc1cccc2ccc(Cl)nc12

>  <IC50>
29 µM

$$$$
>  <smiles.data>
Cc1cc(N)c2cccc(CN3C[C@H](O)[C@H](O)[C@H]3CO)c2n1

>  <IC50>
> 64 µM

$$$$

Query: For the molecule O=c1cc[nH]c2c(CN3C[C@H](O)[C@H](O)[C@H]3CO)cccc12 , give its measured IC50 value.
Result: > 64 µM

Query: Complete the entry with IC50 for OC[C@@H]1[C@@H](O)[C@@H](O)CN1Cc1cccc2c(Cl)ccnc12
Result: 25 µM

Query: Consider the molecule N=C(N)NCCCN1C[C@H](O)[C@H](O)[C@H]1CO . State its measured IC50.
Result: > 64 µM

Query: Consider the molecule Nc1ncnc2c(CN3C[C@H](O)[C@H](O)[C@H]3CO)csc12 and give its recorded IC50.
Result: > 64 µM

====

assay: Inhibition of Trypanosoma brucei brucei Lister 427 H2 transporter by scintillation counting
endpoint.name: pKi
Conceptually, pKi converts a concentration in mol/L into minus its log10.

Query: Please indicate pKi recorded for Nc1ncnc2c(CN3C[C@H](O)[C@H](O)[C@H]3CO)c[nH]c12
Result: 3.23

====

# reported pIC50; entries follow
tested on: Trypanosoma brucei brucei; experiment: Antitrypanosomal activity against suramin sensitive Trypanosoma brucei brucei Lister 427 assessed as reduction in parasite growth after 3 days by fluorometrically; format: functional, organism-based; settings: Lister 427, 72 h
pIC50: −log10 of the molar value.

Some solved entries appear below for comparison.
>  <smiles.data>
N=C(N)c1ccc(CN2C[C@H](O)[C@H](O)[C@H]2CO)cc1

>  <pIC50>
4.32

$$$$
>  <smiles.data>
OC[C@@H]1[C@@H](O)[C@@H](O)CN1Cc1ccc(-n2cncn2)cc1

>  <pIC50>
< 4.19

$$$$
>  <smiles.data>
OC[C@@H]1[C@@H](O)[C@@H](O)CN1Cc1cccc2nccnc12

>  <pIC50>
< 4.19

$$$$

Query: # return recorded pIC50 for entry Cc1cc(Cl)c2cccc(CN3C[C@H](O)[C@H](O)[C@H]3CO)c2n1
Result: 4.66

Query: Give the reported pIC50 for this compound. OC[C@@H]1[C@@H](O)[C@@H](O)CN1Cc1ccc2ccccc2c1
Result: < 4.19

Query: Indicate its recorded pIC50; the compound in question is OC[C@@H]1[C@@H](O)[C@@H](O)CN1Cc1ccc(I)cc1
Result: < 4.19

Query: Please report the measured pIC50 for Cc1nc(-c2ccccc2)ncc1CN1C[C@H](O)[C@H](O)[C@H]1CO
Result: < 4.19

Query: Give the reported value of pIC50 for this record: OC[C@H]1NC[C@H](O)[C@@H]1O
Result: < 4.19

Query: Complete the entry with pIC50 for COc1cccc2c(CN3C[C@H](O)[C@H](O)[C@H]3CO)c[nH]c12
Result: < 4.19

Query: Complete the entry with pIC50 for O=c1[nH]cnc2c(CN3C[C@H](O)[C@H](O)[C@H]3CO)csc12
Result: < 4.47

Query: Answer with the recorded pIC50 of COc1ccc2cccc(CN3C[C@H](O)[C@H](O)[C@H]3CO)c2n1 only.
Result: < 4.19

Query: Determine its reported pIC50: OC[C@@H]1[C@@H](O)[C@@H](O)CN1Cc1c[nH]c2c(O)ncnc12
Result: < 4.19

Query: Check the records and state pIC50 for N#Cc1cccc(CN2C[C@H](O)[C@H](O)[C@H]2CO)c1
Result: < 4.19

====

experiment: Inhibition of Trypanosoma brucei brucei Lister 427 Nucleoside transporter P1 by scintillation counting
endpoint.name: Ki

// worked examples, Ki included
>  <smiles.data>
OC[C@@H]1[C@@H](O)[C@@H](O)CN1Cc1c[nH]c2c(O)ncnc12

>  <Ki>
> 1000 µM

$$$$
>  <smiles.data>
Nc1nc2c(CN3C[C@H](O)[C@H](O)[C@H]3CO)cccc2s1

>  <Ki>
810 µM

$$$$
>  <smiles.data>
Nc1ncnc2c(CN3C[C@H](O)[C@H](O)[C@H]3CO)c[nH]c12

>  <Ki>
360 µM

$$$$
>  <smiles.data>
O=c1[nH]cnc2c(CN3C[C@H](O)[C@H](O)[C@H]3CO)csc12

>  <Ki>
300 µM

$$$$

Please look at the following molecule next.
Query: Report Ki, nothing else, for this molecule: Nc1ncnc2c(CN3C[C@H](O)[C@H](O)[C@H]3CO)csc12
Result: 540 µM
